# Protocol: AUC (24 hrs) in cynomolgus monkey at 0.125 mg/kg, iv or 0.625 mg/kg, po by LC-MS/MS method
# Type: ADME, organism-based, Macaca fascicularis
# Test Parameters: in vivo
Measurement Label: AUC at 24 h (ng·h/mL)
Respond with the bare value in ng·h/mL.

q: Entry under review: C[C@H]1Cc2c(nnn2-c2ncc(F)cn2)CN1C(=O)c1cccc(C(F)(F)F)c1F . Reported AUC at 24 h?
a: 122

* * *

# Protocol: Drug uptake in Sprague-Dawley rat brain administered at 10 mg/kg, po measured after 2.0 hrs
# Assay type: ADME, organism-based
Assignment: determine reported concentration at 2 h for the given compounds.

q: Quick one: concentration at 2 h of C[C@H]1Cc2c(nnn2-c2ncc(F)cn2)CN1C(=O)c1ccnc(C(F)(F)F)c1F [ZANVIPIXANT] ?
a: 2910 ng/mL

q: For C[C@H]1Cc2c(nnn2-c2ncc(F)cn2)CN1C(=O)c1cccc(C(F)(F)F)c1F , what is its reported concentration at 2 h?
a: 2390 ng/mL

* * *

# Protocol: AUC (24 hrs) in Beagle dog at […], iv or 1.25 mg/kg, po by LC-MS/MS method
# Type: ADME, organism-based, Canis lupus familiaris
# Test Parameters: in vivo
Measurement Label: AUC at 24 h (ng·h/mL)
Give a bare numeral; the unit ng·h/mL is implied.

q: Which AUC at 24 h reading was recorded for the compound C[C@H]1Cc2c(nnn2-c2ncc(F)cn2)CN1C(=O)c1ccnc(C(F)(F)F)c1F ?
a: 23300

* * *

# Protocol: AUC (24 hrs) in Sprague-Dawley rat at 0.5 mg/kg, iv or […], po by LC-MS/MS method
# Format: ADME, organism-based
# Test Parameters: in vivo
Measurement Label: AUC at 24 h (ng·h/mL)
Give the quantity in ng·h/mL, number only.

q: Consider the molecule C[C@H]1Cc2c(nnn2-c2ncc(F)cn2)CN1C(=O)c1cccc(C(F)(F)F)c1F and give its measured AUC at 24 h.
a: 3190

* * *

# Protocol: AUC in dog at 10 mg/kg, po for 5 days
# Type: ADME, organism-based, Canis lupus familiaris
# Test Parameters: in vivo
Measurement Label: AUC at 120 h (µg·h/mL)
Give just the numeric value; µg·h/mL need not be written.

q: Consider the molecule C[C@H]1Cc2c(nnn2-c2ncc(F)cn2)CN1C(=O)c1ccnc(C(F)(F)F)c1F [ZANVIPIXANT] and give its measured AUC at 120 h.
a: 167

* * *

# Protocol: Cmax in Beagle dog at […], iv or 1.25 mg/kg, po by LC-MS/MS method
# Type: ADME, organism-based, Canis lupus familiaris
# Test Parameters: in vivo
Measurement Label: Cmax (ng/mL)
Express your answer in ng/mL, writing the number without its unit.

q: Given the compound C[C@H]1Cc2c(nnn2-c2ncc(F)cn2)CN1C(=O)c1ccnc(C(F)(F)F)c1F , what is its reported Cmax?
a: 1120

* * *

# Protocol: Volume of distribution at steady state in Sprague-Dawley rat at 0.5 mg/kg, iv or […], po by LC-MS/MS method
# Format: ADME, organism-based
# Test Parameters: in vivo, read-out: Vdss
Measurement Label: Vd (L/kg)
Reply with just the number (in L/kg).

q: Tell me the measured Vd of C[C@H]1Cc2c(nnn2-c2ncc(F)cn2)CN1C(=O)c1cccc(C(F)(F)F)c1F , please.
a: 2.5

Data provenance is ChEMBL document CHEMBL4028916.
